assay.info: DUSP6 inhibitors restoring Erk phosphorylation by chemical complementation, primary imaging in DUSP6-transfected HeLa (AID 609)
measurement.conditions: HeLa MKP-3 transfected, phospho-Erk imaging KS statistic; measured here: cell density z-score; at 10 µM; cells stimulated with TPA for 15 min
recorded.metric: z-score
Field format: numeric only.

GET /values?readout=z-score&item= Cc1ccc2cc(CNC(C)(C)C)c(=O)[nH]c2c1
-0.205

What about this compound? CCCNc1ncnc2c1cnn2-c1ccc(OC)cc1
-1.64

And then COC(=O)NC(Nc1sc2c(c1C(N)=O)CCCC2)(C(=O)OC)C(F)(F)F (configuration not stated) , what is it?
0.143

Now try CCOC(=O)c1c(-c2cccs2)csc1NC(=O)c1ccncc1 .
0.172

Now give it for CSc1nc2sc3c(c2c2nnnn12)CCC3 too.
-0.0727

Next entry: CC(=O)c1cccc(N=C2NC(=O)C(CO)(CO)S2)c1
-2.29

Next: Cn1ccnc1C(O)c1ccc(OCc2ccccc2)cc1 (configuration not stated)
-3.29

Another compound: COc1cccc(-c2nc(N3CCCCC3C)c3ccccc3n2)c1O (configuration not stated)
-0.111

Please do the same for Cc1c(Cl)cccc1N1C(=O)C2ON(c3ccccc3)C(c3cccnc3)C2C1=O (configuration not stated) as well.
0.393

Lookup Cn1c(Cn2cnc(Cl)c2Cl)nc2ccccc21
0.873

Can you check O=C(O)c1cc2sccc2s1 next?
0.481

Then COc1ccc2[nH]c(C)c(C(=O)CN3CCOCC3)c2c1 ?
-1.08

Now consider CCCc1cc(=O)oc2c(CN3CCCC3)c(O)ccc12 and answer again.
0.0938

How about COc1ccc(Nc2cc(C)nc(-n3nc(C)cc3C)n2)cc1 ?
-0.499

Entry CCCCSc1nc(O)c(C2OC(=O)c3c2ccc(OC)c3OC)c(=O)n1C (configuration not stated) please
-2.21

And then CCN(CC)c1nc(-c2cccc(OC)c2O)nc2ccccc12 , what is it?
-1.06

Moving on to Cc1cc(O)ccc1-c1cnc2ccccc2n1
-0.391

Similarly, COc1cccc(C=NCCNC(=O)c2nonc2N)c1O ?
-0.652

Can you check CCCCCNc1nc(N2CCCC2)c2c(c1C#N)CCN(C)C2 next?
-0.626

Then what about the compound COC(=O)/C(C#N)=C1/SC=C(C)N1c1ccccc1 ?
-0.0327

// repeat for Cc1ccc(S(=O)(=O)N(CC(O)CN2CCOCC2)c2cc(Cl)ccc2Cl)cc1 (configuration not stated) and report
-0.865

Then this compound: O=C(Oc1oc(-c2ccco2)nc1C=Nc1ccccc1)c1ccco1
-2.44

Queued: O=C(Cc1ccc(Cl)cc1)Nc1cccc(-c2nnc(-c3ccco3)o2)c1
0.714

And what about the compound CCC(=NC(CC)CO)C1=C(O)CC(C)(C)CC1=O (configuration not stated) ?
0.537

Queued: C=CCn1c(=N)c(C(=O)OCC)cc2c(=O)n3cccc(C)c3nc21
-2.08

Same question, Cc1ccc(-n2c(SCC(=O)NCc3ccco3)nc3nc4c(cc3c2=O)COC(C)(C)C4)cc1 this time
0.611

O=C(O)CCc1nn2cc(-c3ccccc3)nc2[nH]c1=O ?
0.555

----------
target.entity: Voltage-gated potassium channel subunit beta-2 (Rattus norvegicus) (UniProt P62483)
Sequence (P62483 whole entry, looked up): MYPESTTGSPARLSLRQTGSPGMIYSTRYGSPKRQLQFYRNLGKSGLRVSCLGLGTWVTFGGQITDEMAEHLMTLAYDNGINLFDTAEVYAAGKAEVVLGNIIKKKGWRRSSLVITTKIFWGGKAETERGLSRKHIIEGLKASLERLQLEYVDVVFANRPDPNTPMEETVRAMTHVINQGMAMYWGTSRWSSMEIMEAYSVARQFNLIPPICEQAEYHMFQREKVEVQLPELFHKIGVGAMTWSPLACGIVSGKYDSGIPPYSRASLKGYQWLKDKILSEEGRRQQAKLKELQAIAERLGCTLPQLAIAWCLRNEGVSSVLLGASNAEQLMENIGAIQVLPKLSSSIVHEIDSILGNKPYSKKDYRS
assay.info: KvBeta enzyme negative modulators, primary screen, biochemical, NADPH fluorescence (AID 622);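 further: slope of raw intensity against log time taken from 70 to 1610 s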
measurement.conditions: recombinant KvBeta, 4-cyanobenzaldehyde reduction, at 10 µM, stronger effect = higher value
Values of fluorescence slope greater than or equal to -0.5 map to met; values below map to not met.

Please tell me: is the compound CCc1ccc(C2CC(c3ccccc3)n3ncnc3N2)cc1 (stereo not given) at or over -0.5 in terms of fluorescence slope?
not met

Try COc1cccc(CNc2ncc(Br)cc2Br)c1O next.
met

Same for CCCCC(=O)NCCNc1nc2c(c(=O)n(C)c(=O)n2C)n1Cc1ccccc1
not met

Repeat for the following compound: Brc1ccc2[nH]c3nc(SCCN4CCOCC4)nnc3c2c1
not met

Same question for CCCCC(CCC(=O)Nc1ccc(C(=O)OC)cc1)C(=O)O (stereo not given) please.
met

What about CCN(CC)CCCN1C(=O)C(=O)/C(=C(/O)c2ccc(OC)cc2)C1c1ccco1 (stereo not given) ?
met

Next: COC(=O)N1CC(c2ccccc2)CC1=O (stereo not given)
met

Then what about the compound CC1(C)C2CCC1(C)C(NC(=O)CCN1CCCCC1)C2 (stereo not given) ?
met

Entry to check: CC(=O)C1=C(C)NC(=O)NC1c1cccc(O)c1 (stereo not given)
met

Also Cc1ccc(-c2csc3ncn(-n4c(C)ccc4C)c(=O)c23)o1 ?
met

// same read-out, input: Cc1cccc(N2CCN(C(=O)c3cc4ccccc4oc3=O)CC2)c1C
not met

What do we get for CC(=O)/C=C(\C)NCCNc1c(F)c(F)c(CO)c(F)c1F ?
met

Query CCN1C(=O)CC(N2CCC(Nc3ccc(F)cc3)CC2)C1=O (stereo not given) next
not met

Next record, please: O=C(CCS(=O)(=O)c1cccc2nsnc12)N1CCN(Cc2ccc3c(c2)OCO3)CC1
not met

Entry to check: O=C(O)CSCC(=O)Nc1ccc(S(=O)(=O)N2CCCCC2)cc1
met

How about this compound: COC(=O)COc1ccc(Oc2nc(SC)nc(N(C)C)n2)nn1
met

And what about the compound CC(C)OC(=O)c1c2nc3ccccc3nc2n2c1[nH]c(=O)c1ccccc12 ?
met

Also need CCN1C(=O)c2cccc3c(NC(=O)c4ccc(S(=O)(=O)N(C)C)cc4)ccc1c23 , thanks.
met

Please answer likewise for COc1ccc(S(=O)(=O)Cc2ccc(C(=O)NCCc3ccc(S(N)(=O)=O)cc3)o2)cc1
not met

And CCOC(=O)N1CCN(CCC(=O)c2ccc(Cl)cc2)CC1 ?
not met

Could you do the same for O=C(Nc1ccc(N2CCN(Cc3ccccc3Cl)CC2)cc1)c1cccnc1 , please?
met

Lookup COc1ccc2c(c1OC)C(=O)OC2c1c(O)nc(SC)n(-c2ccccc2)c1=O (stereo not given)
met

Would you mind doing COc1ccccc1C(=O)n1nc(-c2ccc(Cl)cc2)nc1N as well?
met

How about this compound: Cc1ccc(C(=O)C2=C(O)C(=O)N(CCN3CCOCC3)C2c2ccccn2)o1 (stereo not given)
met

For Cc1cc(C)n(-c2c(F)c(F)c(CN3CCCCC3)c(F)c2F)n1 then?
met

Now the compound COc1ccc(C(C)=O)c(OC(=O)c2ccc(OC)c(OC)c2)c1
met

Follow-up item: C=C(C)CN(CC)CCC(=O)Nc1ccc(OC)cc1OC
met

Now this one: CCn1c(SCC(=O)Nc2cc(C)ccc2C)nc2c(c1=O)SC(C)C2 (stereo not given)
not met

Field entry: Nc1ccc2c3c(cccc13)CC2
met

Similarly, COc1ccc(CN(C#N)c2nc(SC)nc(N(C)C)n2)cc1 ?
met

What about this compound? CC(C)N1C(=O)C2C(C(=O)NC3CCCCC3)C3C=CC2(O3)C1C(=O)NC1CCCC1 (stereo not given)
met

Again, but for N#Cc1cc2ccccc2nc1SCC(=O)Nc1ccccc1N1CCOCC1
met

Try this compound next: COCCCNC(=O)c1c(N)n(-c2cccc(S(N)(=O)=O)c2)c2nc3ccccc3nc12
met
